Cited source for all entries: patent US20190263905A1

- TEST_TARGET: T1, Antigen CD66c (CEACAM6; Sino Biological, Inc.) (UniProt P40199 35-320)
- T1 construct: Bought antigen coated on the ELISA plate; construct not described; also called CD66c antigen; CECACAM6
- T1 sequence (looked up): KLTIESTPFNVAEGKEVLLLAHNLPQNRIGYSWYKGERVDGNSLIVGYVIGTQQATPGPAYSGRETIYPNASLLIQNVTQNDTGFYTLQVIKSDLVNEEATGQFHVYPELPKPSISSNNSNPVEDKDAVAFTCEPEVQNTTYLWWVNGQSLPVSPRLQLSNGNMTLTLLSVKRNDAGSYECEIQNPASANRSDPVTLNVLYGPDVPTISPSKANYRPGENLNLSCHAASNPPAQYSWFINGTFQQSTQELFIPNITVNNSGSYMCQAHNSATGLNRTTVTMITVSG
- ASSAY_NOTES: ELISA, coated CEACAM6 100 ng/well, antibody 0.17 ng/ml
QUANTITY: OD 450 nm (OD)
Write the answer as a number in OD, unit excluded.

Item: recombinant humanized anti-CD66c antibody Protein ID 3058 (Vk8 + VH11) (antibody, human IgG1, V domains shown, also called hu 3058; #86) VH: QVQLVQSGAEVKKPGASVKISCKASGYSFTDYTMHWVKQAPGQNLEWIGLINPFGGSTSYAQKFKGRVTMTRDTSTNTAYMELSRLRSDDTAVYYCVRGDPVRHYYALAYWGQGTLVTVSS VL: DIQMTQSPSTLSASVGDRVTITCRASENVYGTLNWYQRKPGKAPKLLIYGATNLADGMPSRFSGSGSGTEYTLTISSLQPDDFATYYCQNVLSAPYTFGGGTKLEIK | OD 450 nm: 0.37

Item: recombinant humanized anti-CD66c antibody Protein ID 3043 (Vk8 + VH6) (antibody, human IgG1, V domains shown, also called hu 3043; #71) VH: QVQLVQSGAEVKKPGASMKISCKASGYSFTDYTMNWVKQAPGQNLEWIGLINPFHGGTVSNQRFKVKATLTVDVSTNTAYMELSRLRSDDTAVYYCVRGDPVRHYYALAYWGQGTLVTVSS VL: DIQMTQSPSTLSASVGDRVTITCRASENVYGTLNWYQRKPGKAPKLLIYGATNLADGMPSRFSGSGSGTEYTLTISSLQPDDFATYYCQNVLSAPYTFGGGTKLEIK | OD 450 nm: 0.41

Item: recombinant humanized anti-CD66c antibody Protein ID 3019 (Vk7 + VH10) (antibody, human IgG1, V domains shown, also called hu 3019; #51) VH: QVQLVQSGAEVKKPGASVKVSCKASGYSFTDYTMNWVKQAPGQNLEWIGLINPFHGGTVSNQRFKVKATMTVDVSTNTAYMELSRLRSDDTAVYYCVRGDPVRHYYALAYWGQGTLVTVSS VL: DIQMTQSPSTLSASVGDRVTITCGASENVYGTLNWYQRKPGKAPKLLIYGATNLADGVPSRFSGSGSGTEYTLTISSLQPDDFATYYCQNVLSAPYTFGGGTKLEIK | OD 450 nm: 0.68
